Data provenance: PubChem BioAssay (Tox21)

TEST: qHTS assay to identify small molecule antagonists of the peroxisome proliferator-activated receptor delta (PPARd) signaling pathway - cell viability counter screen (AID 743213); further: nearly all actives have a fitted effect of over 50% in size
MEASUREMENT_CONDITIONS: PPARd-bla HEK293H viability, CellTiter-Glo luminescence, 17 h; series mostly up to 62 µM
Results filed as inconclusive are left out. Active and inactive are the calls of the source. The call rests on the fitted dose curve; in most records, active means well fitted cell-killing curve with a large enough effect in the repeat runs; inconclusive means weak or mixed curves; inactive means no such curve, though single readings can be large or run the other way.
METRIC_NAME: outcome

[[record]]
compound = "CCOC(=O)C(C)O (stereo not given)"
metric_name = "outcome"
endpoint_result = "inactive"

[[record]]
compound = "Cc1c[nH]c2ccccc12"
metric_name = "outcome"
endpoint_result = "inactive"

[[record]]
compound = "CCCCCCCCCCCCCC(=O)OCC(O)CO (stereo not given)"
metric_name = "outcome"
endpoint_result = "inactive"

[[record]]
compound = "CCC1CCC(CCC(=O)O)C1 (stereo not given)"
metric_name = "outcome"
endpoint_result = "inactive"

[[record]]
compound = "CC1=C2[C@@H]([C@H](C)CC[C@H]2/C=C(\\C)C(=O)O)[C@H](O)C1"
metric_name = "outcome"
endpoint_result = "inactive"

[[record]]
compound = "Nc1ccn([C@H]2CS[C@@H](CO)O2)c(=O)n1"
metric_name = "outcome"
endpoint_result = "inactive"

[[record]]
compound = "CCCCC(CC)COS(=O)(=O)O (stereo not given)"
metric_name = "outcome"
endpoint_result = "inactive"

[[record]]
compound = "CCCCOCCOC(=O)c1cccnc1"
metric_name = "outcome"
endpoint_result = "inactive"

[[record]]
compound = "Cc1cc(CCCOc2c(C)cc(-c3noc(C(F)(F)F)n3)cc2C)on1"
metric_name = "outcome"
endpoint_result = "inactive"

[[record]]
compound = "CC(C)CC(O)CC(C)C"
metric_name = "outcome"
endpoint_result = "inactive"

[[record]]
compound = "COC(=O)CC(C(C)=O)C(=O)OC (stereo not given)"
metric_name = "outcome"
endpoint_result = "inactive"

[[record]]
compound = "CC(C)COC(=O)COc1cc(Cl)c(Cl)cc1Cl"
metric_name = "outcome"
endpoint_result = "inactive"

[[record]]
compound = "O=C(O)c1cccc(Oc2ccccc2)c1"
metric_name = "outcome"
endpoint_result = "inactive"

[[record]]
compound = "COc1ccc(-c2cc(=S)ss2)cc1"
metric_name = "outcome"
endpoint_result = "inactive"

[[record]]
compound = "CCN(Cc1cccc(S(=O)(=O)O)c1)c1ccc(C(=C2C=CC(=[N+](CC)Cc3cccc(S(=O)(=O)O)c3)C=C2)c2ccccc2S(=O)(=O)[O-])cc1"
metric_name = "outcome"
endpoint_result = "inactive"


* * *

TEST: qHTS assay to identify small molecule agonists of the estrogen related receptor (ERR) signaling pathway from Tox21 library (AID 1224849); further: nearly all actives have a fitted effect of over 15% in size
MEASUREMENT_CONDITIONS: ERR reporter cell line, ONE-Glo luciferase, 18 h; at 92.4 µM (top of the series) unless noted
Active and inactive are the calls of the source. The call rests on the fitted dose curve.
Outcome codes: active, inactive

[[record]]
compound = "O=C1c2ccccc2C(=O)c2c(O)ccc(O)c21"
category = "inactive"

[[record]]
compound = "Nc1c(Cl)cc(Cl)cc1[N+](=O)[O-]"
category = "inactive"

[[record]]
compound = "Nc1ccc(F)cc1"
category = "inactive"

[[record]]
compound = "O=C(O)CCS"
category = "inactive"

[[record]]
compound = "CC/C=C\\C/C=C\\C/C=C\\CCCCCCCC(=O)OCC"
category = "inactive"

[[record]]
compound = "CC(=O)Oc1cccc(O)c1"
category = "inactive"

[[record]]
compound = "CCC1CCC(CCC(=O)O)C1 (centres undefined)"
category = "inactive"

[[record]]
compound = "C1=CCC2CC=CC2C1 (centres undefined)"
category = "inactive"

[[record]]
compound = "CC(C)Cc1ccc(CC(=O)O)cc1"
category = "inactive"

[[record]]
compound = "O=C1CC[C@@H](C(=O)O)N1"
category = "inactive"

[[record]]
compound = "CC(CCc1ccc(O)cc1)NCCc1ccc(O)c(O)c1 (centres undefined)"
category = "inactive"

[[record]]
compound = "CCOC(=O)c1ccc(NC(=O)CN2CCCCC2)cc1"
category = "inactive"

[[record]]
compound = "CC1C(C)(C)C2=C(C(=O)CCC2)C1(C)C (centres undefined)"
category = "inactive"

[[record]]
compound = "O=C(Oc1ccccc1)c1ccc2ccccc2c1O"
category = "active"

[[record]]
compound = "CCCCCCCC(=O)OCCCCCC"
category = "inactive"

[[record]]
compound = "COc1cc(NS(=O)(=O)c2ccc(N)cc2)nc(C)n1"
category = "inactive"

[[record]]
compound = "O=C(c1ccccc1)c1ccc(O)cc1"
category = "inactive"

[[record]]
compound = "O=C(O)CCCc1c[nH]c2ccccc12"
category = "inactive"

[[record]]
compound = "CCCCOC(=O)CCCCC(=O)OCCCC"
category = "inactive"

[[record]]
compound = "O=C(O)c1cc(Cl)cc(Cl)c1O"
category = "inactive"

[[record]]
compound = "COc1cc(NC(C)CCCN)c2ncccc2c1 (centres undefined)"
category = "inactive"

[[record]]
compound = "CCN(CC)c1cccc(O)c1"
category = "inactive"

[[record]]
compound = "CC(C)N=C=NC(C)C"
category = "inactive"

[[record]]
compound = "CC(C)COC(=O)COc1cc(Cl)c(Cl)cc1Cl"
category = "inactive"

[[record]]
compound = "CC[C@@H](CO)NCCN[C@@H](CC)CO"
category = "inactive"

[[record]]
compound = "Cc1c(C2(c3cc(Br)c(O)c(Br)c3C)OS(=O)(=O)c3ccccc32)cc(Br)c(O)c1Br"
category = "inactive"

[[record]]
compound = "COc1ccc(-c2cc(C(F)F)nn2-c2ccc(S(N)(=O)=O)cc2)cc1F"
category = "inactive"

[[record]]
compound = "CC(C)c1ccc(C#N)cc1"
category = "inactive"

[[record]]
compound = "CC(C)(C)CCCCCCOC(=O)c1ccccc1C(=O)OCCCCCCC(C)(C)C"
category = "inactive"


* * *

ASSAYED_TARGET: Androgen receptor (Homo sapiens)
TEST: qHTS assay to identify small molecule antagonists of the androgen receptor (AR) signaling pathway (AID 743035)
MEASUREMENT_CONDITIONS: HEK293 AR-UAS-bla, R1881-stimulated, beta-lactamase FRET, 16 h; series mostly up to 58.5 µM
Records with an inconclusive call do not appear. Calls of active or inactive are those of the source. Calls come from the whole dose curve; as a rule, active = well fitted inhibition curve with a large enough effect in the signal ratio in the repeat runs (not every such curve was filed as active); inconclusive = weak or mixed curves, or effect the other way; inactive = no such curve, though single readings can be large or run the other way; the % refers to the signal ratio.
Outcome codes: active, inactive

[[record]]
molecule = "CCCCCCCCCCCCCC(=O)OCC(O)CO (stereo unspecified)"
category = "inactive"

[[record]]
molecule = "CCCCCCCC(=O)OCCCCCC"
category = "inactive"

[[record]]
molecule = "COC(=O)C1=C(C)NC(C)=C(C(=O)OC(C)(C)CN(C)CCC(c2ccccc2)c2ccccc2)C1c1cccc([N+](=O)[O-])c1 (stereo unspecified)"
category = "active"

[[record]]
molecule = "CN1C(CSCC(F)(F)F)Nc2cc(Cl)c(S(N)(=O)=O)cc2S1(=O)=O (stereo unspecified)"
category = "inactive"

[[record]]
molecule = "CCOC(=O)c1ccc(NC(=O)CN2CCCCC2)cc1"
category = "inactive"

[[record]]
molecule = "O=C1CC[C@@H](C(=O)O)N1"
category = "inactive"


* * *

ASSAYED_TARGET: Nuclear receptor ROR-gamma (Homo sapiens) (UniProt P51449)
TEST: qHTS assay to identify small molecule antagonists of the retinoid-related orphan receptor gamma (ROR-gamma) signaling pathway (AID 1159521; further: nearly all actives have a fitted effect of over 50% in size; further: potency means the concentration at half of the fitted maximal effect)
MEASUREMENT_CONDITIONS: Tet-on RORgamma CHO cells, RORE-luciferase, 16 h; series mostly up to 92.4 µM
Inconclusive results are not listed. Activity calls are given as the source filed them. Calls come from the whole dose curve; as a rule, active = well fitted inhibition curve with a large enough effect in the repeat runs; inconclusive = weak or mixed curves, or effect the other way; inactive = no such curve, though single readings can be large or run the other way.
METRIC_NAME: Potency

[[record]]
compound = "Cc1ccc2c(c1)CCCN2"
metric_name = "Potency"
endpoint_result = "inactive"

[[record]]
compound = "COC(=O)C1=C(C)NC(C)=C(C(=O)OC(C)(C)CN(C)CCC(c2ccccc2)c2ccccc2)C1c1cccc([N+](=O)[O-])c1 (centres undefined)"
metric_name = "Potency"
endpoint_result = "11.9 µM (active)"

[[record]]
compound = "CC[C@H]1OC(=O)[C@H](C)[C@@H](O[C@H]2C[C@@](C)(OC)[C@@H](O)[C@H](C)O2)[C@H](C)[C@@H](O[C@@H]2O[C@H](C)C[C@H](N(C)C)[C@H]2O)[C@](C)(O)C[C@@H](C)C(=O)[C@H](C)[C@@H](O)[C@]1(C)O"
metric_name = "Potency"
endpoint_result = "inactive"

[[record]]
compound = "O=S(=O)(Cl)c1c(Cl)cccc1Cl"
metric_name = "Potency"
endpoint_result = "inactive"


* * *

TEST: qHTS assay to identify small molecule antagonists of the estrogen related receptor signaling pathway with the pleiotropic PPARgamma coactivator (PGC) from Tox21 10K library - cell viability counter screen (AID 1224840); further: nearly all actives have a fitted effect of over 40% in size
MEASUREMENT_CONDITIONS: PGC/ERR reporter cells viability, CellTiter-Fluor, 17.5 h; series mostly up to 92.4 µM
Results filed as inconclusive are left out. The source made the active and inactive calls. The call rests on the fitted dose curve; in most records, active means well fitted cell-killing curve with a large enough effect in the repeat runs (not every such curve was filed as active); inconclusive means weak or mixed curves, or effect the other way; inactive means no such curve, though single readings can be large or run the other way.
Outcome codes: active, inactive

[[record]]
chem_smiles = "COc1cc(C(C)=O)ccc1OCCCN1CCC(c2noc3cc(F)ccc23)CC1"
category = "inactive"

[[record]]
chem_smiles = "CCCCOCCOC(=O)c1cccnc1"
category = "inactive"

[[record]]
chem_smiles = "CCN(CC)CCOC(=O)C(c1ccccc1)c1ccccc1"
category = "inactive"

[[record]]
chem_smiles = "CC(=O)OCC1=C(C(=O)O)N2C(=O)[C@@H](NC(=O)CSc3ccncc3)[C@H]2SC1"
category = "inactive"

[[record]]
chem_smiles = "CC(C)(C)S"
category = "inactive"

[[record]]
chem_smiles = "Cc1ccc2c(c1)CCCN2"
category = "inactive"

[[record]]
chem_smiles = "CC(=O)c1ccc[nH]1"
category = "inactive"

[[record]]
chem_smiles = "CC(C)C(=O)OCCOc1ccccc1"
category = "inactive"

[[record]]
chem_smiles = "O=C(Nc1ccc(C(=O)O)c(O)c1)c1ccccc1"
category = "inactive"

[[record]]
chem_smiles = "CCC(CO)(CO)[N+](=O)[O-]"
category = "inactive"

[[record]]
chem_smiles = "CC(CO)(CO)C(=O)O"
category = "inactive"

[[record]]
chem_smiles = "Cc1ccc2nc(N)[nH]c(=O)c2c1Sc1ccncc1"
category = "inactive"

[[record]]
chem_smiles = "Cc1c(C2(c3cc(Br)c(O)c(Br)c3C)OS(=O)(=O)c3ccccc32)cc(Br)c(O)c1Br"
category = "active"

